metricName: melting point (°C)

1 = Cc1c(Cc2nc(C(=O)O)cs2)n(S(=O)(=O)c2cccc(C(C)(C)C)c2)c2ccc(C(F)(F)F)cc12
2 = CCCCc1nc(SC)c(C(=O)OCC)n1Cc1ccccc1-c1ccccc1S(=O)(=O)NC#N
QUERY: // returns 1 or 2 , whichever has the lower melting point // respond with label for picked entry
RESULT: 1
(1: 60 °C, 2: 105 °C)

----------
metricName: melting point

Here are 2 molecules together with their reported answers.
| molecule | melting point |
| --- | --- |
| O=C(Nc1ccc([N+](=O)[O-])cc1Cl)OCCCl | 128 to 130 °C |
| CN1C(=O)C(Cc2ccccc2)(c2ccccc2OCCCCBr)c2ccccc21 (stereo unspecified) | 174 to 175 °C |

QUERY: Please report the measured melting point for CC(C)(C)OC(=O)n1cc2c(c1C=O)OCCO2
RESULT: 94 to 95 °C

QUERY: Please report the measured melting point for Cc1cc(C)nc(NC(=O)NS(=O)(=O)c2ccccc2O)n1
RESULT: 180 °C

QUERY: Please report the measured melting point for CC(C)(F)c1cnn2c(-c3ccc(F)c(-c4c(F)cccc4C#N)c3)cnc2n1
RESULT: 187 to 188 °C

QUERY: Please report the measured melting point for CCOC(N)=C(C#N)C#N
RESULT: 233 °C

QUERY: Please report the measured melting point for CCOC(=O)c1cc2c(cn1)[nH]c1ccc(C(C)O)cc12 (stereo unspecified)
RESULT: 125 to 130 °C

QUERY: Please report the measured melting point for CCNc1cccnc1N1CCN(C(=O)c2ccc(C(=O)NCCO)cn2)CC1
RESULT: 178 to 180 °C

QUERY: Please report the measured melting point for CC(=O)OCC1OC(n2cnc3c(N)nc(F)nc32)C(OC(C)=O)C1OC(C)=O (stereo unspecified)
RESULT: 195 to 196 °C

QUERY: Please report the measured melting point for CCCc1c(OCCCOc2ccc(C(=O)NCCCCc3cccnc3)cc2)ccc(C(C)=O)c1O
RESULT: 133 to 134 °C

QUERY: Please report the measured melting point for CN(C)C=NS(=O)(=O)c1ccc(F)c(F)c1
RESULT: 109 to 112 °C

QUERY: Please report the measured melting point for CCOC(=O)C1=C(C)NC(C=O)=C(C(=O)OCC)C1c1ccco1 (stereo unspecified)
RESULT: 78 to 79.5 °C

QUERY: Please report the measured melting point for Cc1cc(C(=CC(=O)N2CCOCC2)c2ccccc2)ccc1OS(=O)(=O)N(C)C
RESULT: 108 °C

QUERY: Please report the measured melting point for CC(C)(C)c1ccc(CCC(=O)C2CCCCCC2)cc1NC(=O)CC1c2ccccc2Oc2ccccc21
RESULT: 155 to 156 °C

Reference for the values: a melting point compilation (Tetko et al.; mined from patent text by program, amines drawn as free bases though some values may be those of a salt)
